- assayed target: T1, human BR3 extracellular domain (human, UniProt Q96RJ3 1-61)
- T1 construct: biotinylated where used as tracer; also called hBR3-ECD; BR3-ECD
- test protocol: SPR, BR3 ECD on chip;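 note: Anti-BR3 antibodies passed over the chip at high flow in PBS with 0.05% polysorbate 20, on and off rates fitted together globally to a 1:1 binding model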
endpoint label: kon (M⁻¹ s⁻¹)
Answers are plain numbers, in M⁻¹ s⁻¹.

Solved cases (7 shown):
Hu2.1-RL Fab (Fab, V domains shown, Fab) VH: EVQLVESGGGLVQPGGSLRLSCAASGDSITRGYWNWVRQAPGKGLEWVGYINYSGTTYYNPSLKSRFTISRDTSKNTLYLQMNSLRAEDTAVYYCATPHTYGAMDYWGQGTLVTVSS VL: DIQMTQSPSSLSASVGDRVTITCRASESVDDYGISFMHWYQQKPGKAPKLLIYRASDLESGVPSRFSGSGSGTDFTLTISSLQPEDFATYYCQQTSKDPWTFGQGTKVEIKR :: 180000
Hu2.1-46 IgG (antibody, V domains shown, humanized IgG; also called h2.1-46) VH: EVQLVESGGGLVQPGGSLRLSCAASGDSITRGYWNWVRQAPGKGLEWVGYINYSGTTYYNPSLKSRFTISRDTSKNTFYLQMNSLRAEDTAVYYCANSNFYGAMDYWGQGTLVTVSS VL: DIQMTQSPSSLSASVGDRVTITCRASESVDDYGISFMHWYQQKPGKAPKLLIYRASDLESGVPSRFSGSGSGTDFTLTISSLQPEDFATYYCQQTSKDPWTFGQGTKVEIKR :: 2.2e+06
Hu2.1-94 IgG (antibody, V domains shown, humanized IgG; also called h2.1-94) VH: EVQLVESGGGLVQPGGSLRLSCAASGDSITRGYWNWVRQAPGKGLEWVGYINYSGTTYYNPSLKSRFTISRDTSKNTLYLQMNSLRAEDTAVYYCATSHNTGEMDYWGQGTLVTVSS VL: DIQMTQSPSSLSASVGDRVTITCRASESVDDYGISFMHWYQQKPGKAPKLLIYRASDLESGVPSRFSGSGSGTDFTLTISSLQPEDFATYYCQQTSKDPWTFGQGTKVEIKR :: 1.77e+06
Hu11G9-36 IgG (antibody, V domains shown, humanized IgG) VH: EVQLVESGGGLVQPGGSLRLSCAASGDSINFGYWNWVRQAPGKGLEWVGYISYSGSTYYNPSLKSRFTISRDTSKNTFYLQMNSLRAEDTAVYYCAALNDLFLYFDVWGQGTLVTVSS VL: DIQMTQSPSSLSASVGDRVTITCRSSQSLVHSNGNTYLHWYQQKPGKAPKLLIYKVSNRFSGVPSRFSGSGSGTDFTLTISSLQPEDFATYYCSQSTHVPPFTFGQGTKVEIKR :: 1.71e+06
Hu9.1-88 Fab (Fab, V domains shown, Fab) VH: EVQLVESGGGLVQPGGSLRLSCAASGFPVTGSYVSWVRQAPGKGLEWVGFIRDKANGYTTEYNPSVKGRFTISRDTSKNTLYLQMNSLRAEDTAVYYCAQVRRALDYWGQGTLVTVSS VL: DIQMTQSPSSLSASVGDRVTITCKSSQSLLYSSNQNNYLAWYQQKPGKAPKLLIYWASTRESGVPSRFSGSGSGTDFTLTISSLQPEDFATYYCQQYYTYPYTFGQGTKVEIKR :: 1.37e+06
chimeric 2.1 IgG (antibody, V domains shown, also called Ch 2.1 IgG; ch 2.1) VH: EVQLQESGPSLVKPSQTLSLTCSVTGDSITRGYWNWIRKFPGNKLEFMGYINYSGTTYYNPSLKSRISITRDTSKNQYYLQLNSVTTEDTATYYCATPHTYGAMDYWGQGTTLTVSA VL: DIVLTQSPVSLAVSLGQRATISCRASESVDDYGISFMHWYQQKPGQPPKLLIYRASDLESGIPARFSGSGSGTDFTLTINPVETDDVAIYYCQQTSKDPWTFGGGT :: 1.68e+06
Hu2.1-46 Fab (Fab, V domains shown, Fab) VH: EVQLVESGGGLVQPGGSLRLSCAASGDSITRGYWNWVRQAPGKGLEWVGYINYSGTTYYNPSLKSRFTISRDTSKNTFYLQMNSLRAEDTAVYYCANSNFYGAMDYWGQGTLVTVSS VL: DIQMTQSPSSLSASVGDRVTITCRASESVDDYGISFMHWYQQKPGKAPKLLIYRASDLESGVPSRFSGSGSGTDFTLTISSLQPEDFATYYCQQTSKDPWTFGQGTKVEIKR :: 2.55e+06

Kindly review the next binder as well.
Value of kon reported for the binder Hu2.1-94 Fab (Fab, V domains shown, Fab) VH: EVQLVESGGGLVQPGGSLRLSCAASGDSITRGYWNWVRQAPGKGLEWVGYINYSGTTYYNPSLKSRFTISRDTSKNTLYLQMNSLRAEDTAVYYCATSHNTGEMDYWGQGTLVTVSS VL: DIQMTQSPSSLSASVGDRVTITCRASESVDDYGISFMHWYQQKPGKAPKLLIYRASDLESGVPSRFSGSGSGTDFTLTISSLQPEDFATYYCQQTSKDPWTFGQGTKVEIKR is 1.39e+06
